System: UACC-257 melanoma
test.method.notes: NCI-60 one-dose screen, 48 h (100 = growth as untreated, 0 = no growth, -100 = all killed)
assay.setup: 10 µM unless noted
This is part of a sample that, as a whole, favours compounds with a hit. Of some 83,000 tested, about 20% had one in any assay.
// boundary case: growth equal to 70% maps to condition not met; strictly smaller maps to condition met

Answered examples (10):
{"compound": "NC(=O)c1cccc(-n2ccc3cc(NC(=O)Nc4cc(C(F)(F)F)cc(C(F)(F)F)c4)ccc32)n1", "category": "condition not met"}
{"compound": "CNC(=O)Nc1ccc(-c2nc(N3CCOCC3)nc3c2cnn3C2CCOCC2)cc1", "category": "condition met"}
{"compound": "C/C(=C(/c1ccccc1)c1ccc(OCC(O)CN2CCOCC2)cc1)c1ccccc1 (configuration not stated)", "category": "condition not met"}
{"compound": "CCN(CC)CCOC(COc1cc(C)cc(C)c1)COc1cc(C)cc(C)c1", "category": "condition met"}
{"compound": "FCc1nc2nc(Cl)c(Cl)nc2[nH]1", "category": "condition not met"}
{"compound": "Clc1ccc(N2N=C(c3cccc(Nc4ccncc4)c3)CC2c2ccc(Br)cc2)cc1 (configuration not stated)", "category": "condition not met"}
{"compound": "CCCCCOc1ccc(/C=N/Nc2cc(C)nc3ccc(Br)cc23)cc1", "category": "condition not met"}
{"compound": "C=C1C(=O)O[C@H]2[C@H]1CC/C(COC(=O)/C=C/c1c[nH]c3ccccc13)=C\\CC[C@@]1(C)O[C@@H]21", "category": "condition met"}
{"compound": "COc1cc(-c2cc(=O)oc3cc(O)ccc23)cc(OC)c1OC", "category": "condition not met"}
{"compound": "COc1cc(C2CC(c3cccc(Nc4ccncc4)c3)=NN2c2cc(Cl)cc(Cl)c2)cc(OC)c1OC (configuration not stated)", "category": "condition met"}

Q. Hi there! Is growth for COc1ccc(-c2nc(SC(C)C)nc(NNC(N)=O)c2C#N)cc1 below 70%, do you know?
A. condition not met

Q. Hi there! Is growth for C=C(C)[C@@H]1CC[C@]2(C(=O)NCCCN(CCC#N)CCC#N)CC[C@]3(C)[C@H](CC[C@@H]4[C@@]5(C)CCC(=O)C(C)(C)[C@@H]5CC[C@]43C)[C@@H]12 below 70%, do you know?
A. condition not met

Q. Hi there! Is growth for CS(=O)(=O)c1ccc(-c2cc3c(oc2=O)-c2ccccc2OC3O)cc1 (configuration not stated) below 70%, do you know?
A. condition met
